Test system: OVCAR-3 ovarian
Experiment Description: NCI-60 one-dose screen, 48 h
Condition Info: 10 µM unless noted
About 83,000 compounds went through this panel and 20% of them were active in at least one assay; those are over-represented in the sample as a whole. Activity calls are given as the source filed them. The calls were made as follows: active = growth percent below 10; inactive = the rest.
Assign a class; possible classes are T = active, F = inactive

Worked examples, 6 compounds total:
Compound	Assayed Target	Label Value
O=C1C=C(OCC=C(Cl)Cl)C(=O)c2ccccc21	OVCAR-3 ovarian	F
Cc1cc(N2CCN(c3ccnc4cc(Cl)ccc34)CC2)nc(NC2CCCCC2)n1	OVCAR-3 ovarian	F
O=C(Oc1cccnc1)c1ccsc1Nc1ccnc(C(F)(F)F)c1	OVCAR-3 ovarian	F
COc1ccc(-n2nc(C)c3c(Nc4ccc(NC(=O)Nc5ccc(Cl)c(C(F)(F)F)c5)cc4)ncnc32)cc1	OVCAR-3 ovarian	T
COc1ccc(/C=C/C(=O)c2cc(O)ccc2O)cc1	OVCAR-3 ovarian	F
Cc1cc(N[C@@H]2CCC[C@H](Nc3ccnc4cc(Cl)ccc34)C2)nc(N2CCCCCC2)n1	OVCAR-3 ovarian	T

Q) Test call for this compound, please: O=S(=O)(Nc1ccc(OC(F)F)cc1)c1ccc(-c2cnc(C3CC3)o2)cc1
A) F

Q) Test call for this compound, please: Cn1cc(-c2nonc2-c2cn(C)c3ccc(F)cc23)c2cc(F)ccc21
A) F

Q) Test call for this compound, please: CC(=O)NCC1c2c(n(C)c3c(Cl)c(Cl)ccc23)C(=O)NC1(C)C (centres undefined)
A) F

Q) Test call for this compound, please: CCc1nc(N)nc(N)c1C#CC(C)c1ccc(-c2ccncc2)cc1Cl (centres undefined)
A) F

Q) Test call for this compound, please: O=C1/C(=C/c2ccccc2O)N=C2SCCCN12
A) F

====

System: HOP-62 NSCLC
Experiment Description: NCI-60 one-dose screen, 48 h (100 = growth as untreated, 0 = no growth, -100 = all killed)
Condition Info: 10 µM unless noted
This is part of a sample that, as a whole, favours compounds with a hit. Of some 83,000 tested, about 20% had one in any assay. Active and inactive are the calls of the source. How the source made its calls: active means growth percent below 10; inactive means the rest.
Below, each entry is listed with its recorded growth.

Molecule	Assayed Target	Measure Name	Test Result
COc1cccc(NC(=O)c2sc3nc(C)c(C(C)=O)cc3c2N)c1	HOP-62 NSCLC	growth	44.7% (inactive)
COC(=O)c1ccc(Cn2cnc3c(N)ncnc32)cc1	HOP-62 NSCLC	growth	97% (inactive)
O=C(CCN1C(=O)/C(=C/c2ccc(Cl)cc2)SC1=S)NCCCN1CCOCC1	HOP-62 NSCLC	growth	101% (inactive)
COc1ccc(-c2n[nH]nc2-c2csc3ccccc23)cc1OC	HOP-62 NSCLC	growth	25.2% (inactive)
O=C(/C=C/c1ccccc1)c1ccc(O)c(CN2CCN(c3cc4c(cc3F)c(=O)c(C(=O)O)cn4C3CC3)CC2)c1	HOP-62 NSCLC	growth	25.1% (inactive)

Input c1ccc(-c2c(-c3ccccc3)[n+](Cc3ccc4ccccc4c3)c(-c3ccc(-c4nc5ccccc5s4)cc3)n2Cc2ccc3ccccc3c2)cc1 . Output growth: -90% (active)

Input COc1cc(-c2nn(-c3ccc(C(=O)O)cc3)cc2C(=O)O)ccc1O . Output growth: 61.6% (inactive)

Input CCN(CC)c1ccc(/C=N\NC(=O)/C=C/C=C/c2ccc3c(c2)OCO3)c(O)c1 . Output growth: 28.5% (inactive)

Input CCNc1ncnc2c1cnn2C1CCCO1 (stereo unspecified) . Output growth: 99.4% (inactive)

====

Tested on: U251 CNS
Experiment Description: NCI-60 one-dose screen, 48 h
Condition Info: 10 µM unless noted
Compounds without any hit were thinned out: in the full panel of roughly 83,000, 20% have a hit. Activity calls are given as the source filed them. How the source made its calls: active means growth percent below 10; inactive means the rest.
Assign a class; possible classes are active, inactive

Worked examples, 5 molecules total:
Molecule	Label Value
CC1=C[C@H]2c3c(c(O)c(O)c4oc5cc(O)ccc5c(=O)c34)[C@H](c3cc(O)c(O)c4oc5cc(O)ccc5c(=O)c34)[C@H]2C(C)(C)C1	inactive
Cc1ncc(C(=O)Nc2ccc(CN3CCN(C)CC3)c(C(F)(F)F)c2)cc1C#Cc1cnc2cccnn12	active
NC(=NC1C2CC3CC(C2)CC1C3)Nc1ccc(I)cc1 (stereo unspecified)	inactive
COc1cc(-c2nc3cc(Cl)c(Cl)cc3[nH]2)ccc1OCC(=O)N=Nc1c(O)[nH]c2ccccc12	active
O=C1C=C(OCC=C(Cl)Cl)C(=O)c2ccccc21	inactive

Q) Test call for this molecule, please: O=C1/C(=C/c2ccc(OCCCOc3ccc(Cl)cc3)cc2)N=C2SCCCN12
A) inactive

Q) Test call for this molecule, please: Cn1cc(C(=O)c2nc(-c3c[nH]c4ccccc34)no2)c2ccccc21
A) inactive

Q) Test call for this molecule, please: O=C(CN1CCCCC1)Nc1ccc2oc(=O)ccc2c1
A) inactive

Q) Test call for this molecule, please: Nc1n[nH]c2ccc([C@@H]3Nc4cc5c(cc4[C@H]4C6CCC(C6)[C@@H]34)C(=O)NC5)cc12 (stereo partly specified)
A) inactive

Q) Test call for this molecule, please: O=C1/C(=C/c2ccccc2O)N=C2SCCCN12
A) inactive

Q) Test call for this molecule, please: CNC(=O)c1cc(Oc2ccc(NC(=O)Nc3ccc(Cl)c(OC(F)(F)F)c3)c(F)c2)ccn1
A) inactive

====

Tested on: SF-295 CNS
Experiment Description: NCI-60 one-dose screen, 48 h
Condition Info: 10 µM unless noted
This is part of a sample that, as a whole, favours compounds with a hit. Of some 83,000 tested, about 20% had one in any assay. Activity calls are given as the source filed them. Rule for the calls: active = growth percent below 10; inactive = the rest.
Assign a class; possible classes are active, inactive

Q) Test call for this compound, please: COc1cc(/C=C/C(=O)Nc2cccnc2Nc2ccc(F)cc2)cc(OC)c1OC
A) inactive

====

Tested on: SN12C renal
Experiment Description: NCI-60 one-dose screen, 48 h
Condition Info: 10 µM unless noted
Compounds without any hit were thinned out: in the full panel of roughly 83,000, 20% have a hit. The source made the active and inactive calls. How the source made its calls: active means growth percent below 10; inactive means the rest.
Assign a class; possible classes are active, inactive

Compound	Assayed Target	Label Value
Nc1ccn(-c2ccc(Br)cc2)c(=O)n1	SN12C renal	inactive

Consider the record given below.
Q) Test call for this compound, please: COc1ccc(CCNc2nc(SC)nc(-c3cccc([N+](=O)[O-])c3)c2C#N)cc1OC
A) inactive

====

Below, each entry is listed with its recorded growth.
System: NCI-H23 lung
Experiment Description: NCI-60 one-dose screen, 48 h (100 = growth as untreated, 0 = no growth, -100 = all killed)
Condition Info: 10 µM unless noted
The panel holds about 83,000 compounds, 20% with a hit somewhere; the sample as a whole holds those more often.
Give a bare numeral; the unit % is implied.

Examples with their reported growth follow.
Compound	Test Result
CSc1nc(NCCO)c(C#N)c(-c2cccc([N+](=O)[O-])c2)n1	99.5
O=C1Nc2c(ccc(Cl)c2Cl)/C1=C\c1ccc(C(F)(F)F)cc1	68.8
CSc1nc(NCc2ccccc2)c(C#N)c(-c2cccc([N+](=O)[O-])c2)n1	93.7

Input O=C1c2cccc3cccc(c23)C(=O)N1CCCCN1CCN(CCCCOc2ccc(-c3nc4ccc(N5CCOCC5)cc4[nH]3)cc2)CC1 . Output growth: 79.2

Input O=C1/C(=C/c2ccccc2)SC(=S)N1CCc1ccc(O)cc1 . Output growth: 98

Input C=C1C(=O)O[C@H]2[C@H]1CC/C(COC(=O)c1cc3cc(OC)ccc3[nH]1)=C\CC[C@@]1(C)O[C@@H]21 . Output growth: -72.6

Input NC(CSC(c1ccccc1)(c1ccccc1)c1ccc(Cl)cc1)C(=O)O (centres undefined) . Output growth: 8.79

Input O=C(COc1ccc(/C=C2\CSc3ccccc3C2=O)cc1)Nc1nccs1 . Output growth: 61.1

Input CN1CCN(c2nc(NCCCCNc3ccnc4cc(Cl)ccc34)c3ccccc3n2)CC1 . Output growth: 82.8

Input O=c1cc(CSc2nnc(SCc3cc(=O)oc4c3ccc3ccccc34)o2)c2ccc3ccccc3c2o1 . Output growth: 89.9

Input N=C(N)c1ccc(-c2ccc(-c3ccc4ccccc4c3)s2)s1 . Output growth: 5.5

Input O=Nc1c(O)c(Cl)cc2ccccc12 . Output growth: 92.3

Input CC1=C/C(=C(\c2ccc(N(C)C)cc2)c2ccc([N+](C)(C)C)cc2)C=CC1=[N+](C)C . Output growth: 80.4

Input CC(C)(C)N1CCC1CN (centres undefined) . Output growth: 104

====

Test system: BT-549 breast
Experiment Description: NCI-60 one-dose screen, 48 h (100 = growth as untreated, 0 = no growth, -100 = all killed)
Condition Info: 10 µM unless noted
About 83,000 compounds went through this panel and 20% of them were active in at least one assay; those are over-represented in the sample as a whole.
Measure Name: growth (%)
Give a bare numeral; the unit % is implied.

Examples with their reported growth follow.
Compound	Test Result
N#Cc1cnn(-c2nc3c(Cl)cccc3s2)c1N	90.4
CCCCN1CCCn2c1nc1c2c(=O)n(CCC)c(=O)n1CCC	98.1

Input COc1ccc(C(=O)/C=C/c2cccnc2Nc2cc(OC)c(OC)c(OC)c2)cc1 . Output growth: 36.3

Input COc1cc2nnc3c4cccnc4[nH]c3c2cc1OC . Output growth: 72.9
